- TARGET: rabbit aortic rings (Oryctolagus cuniculus)
- Construct: The thoracic aorta was removed, cleaned of adherent fat and connective tissue and then cut into 3-mm ring segments; from tissue; host or cells: rabbit thoracic aorta rings, endothelium removed
- Sequence (P34976 1-359): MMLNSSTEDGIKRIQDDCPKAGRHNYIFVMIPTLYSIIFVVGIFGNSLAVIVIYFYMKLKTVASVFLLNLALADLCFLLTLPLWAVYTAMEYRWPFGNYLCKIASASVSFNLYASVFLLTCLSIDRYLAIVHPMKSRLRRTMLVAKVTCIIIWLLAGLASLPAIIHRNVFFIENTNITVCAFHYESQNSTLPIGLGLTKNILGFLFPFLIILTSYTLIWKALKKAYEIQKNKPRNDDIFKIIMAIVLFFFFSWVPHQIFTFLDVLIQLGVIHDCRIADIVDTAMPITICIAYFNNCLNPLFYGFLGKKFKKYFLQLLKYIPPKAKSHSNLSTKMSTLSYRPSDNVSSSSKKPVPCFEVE
- METHOD NOTES: Assay B: In Vitro Vascular Smooth Muscle Response for AII
- Parameters: species or system rabbit (male New Zealand white)
- CONDITIONS USED: rabbit aorta rings, two rabbits per antagonist; antagonist 10^-5 M, 5 minutes; AII contraction; Schild; read-out: pA2 (first of two values) (converted)
PARAMETER MEASURED: Kb (µM)
Give the quantity in µM, number only.

Example compounds with recorded Kb:
> print(dat)
                                   compound  unit.spec  observed.result
1  CCCCn1nc(C2OCC(C)(C)CO2)nc1Cc1ccc(-c2ccccc2-c2nnn[nH]2)nc1 [Example 32]         µM             0.02
2  CCCCn1nc(C(O)CCC)nc1Cc1ccc(-c2ccccc2-c2nnn[nH]2)nc1 (stereo not shown) [Example 10]         µM            0.012
3  CCCCn1nc(CCc2cccs2)nc1Cc1ccc(-c2ccccc2-c2nnn[nH]2)nc1 [Example 4]         µM          0.00501
4  CCCCn1nc(C=O)nc1Cc1ccc(-c2ccccc2-c2nnn[nH]2)nc1 [Example 30]         µM            0.214
5  CCCCn1nc(C(OCC)OCC)nc1Cc1ccc(-c2ccccc2-c2nnn[nH]2)nc1 [Example 27]         µM           0.0204
6  CCCCn1nc(C(F)F)nc1Cc1ccc(-c2ccccc2-c2nnn[nH]2)nc1 [Example 14]         µM            0.038

Read the next record carefully.
**Q:** Fill blank: measured Kb of the compound CCCCn1nc(C(=O)CCC)nc1Cc1ccc(-c2ccccc2-c2nnn[nH]2)nc1 [Example 11] is ____.
**A:** 0.0135
